Test: Plasma concentration in C57BL/6J mouse after 5 days at 10 mg/kg/day
Format: ADME, organism-based
experimental_readout: concentration at 120 h (ng/mL)
Supply the numeric figure in ng/mL, leaving out any unit text.

// query Request the reported concentration at 120 h associated with "CCN(Cc1nc(-c2cccc(C(F)(F)F)c2)oc1C)c1ccc(C(O)(C(F)(F)F)C(F)(F)F)cc1"
// result 700

* * *

Experiment: Liver concentration in C57BL/6J mouse after 5 days at 10 mg/kg/day
Assay type: ADME, organism-based
Conditions: read-out: Drug uptake
experimental_readout: concentration at 120 h (ng/g)
Value expressed in ng/g; do not type the unit.

// query Which concentration at 120 h reading was recorded for the compound "CCN(Cc1nc(-c2cccc(C(F)(F)F)c2)oc1C)c1ccc(C(O)(C(F)(F)F)C(F)(F)F)cc1" ?
// result 8200
